Tested on: EKVX NSCLC
assaySummary: NCI-60 one-dose screen, 48 h (100 = growth as untreated, 0 = no growth, -100 = all killed)
testSettings: 10 µM
The panel holds about 83,000 compounds, 20% with a hit somewhere; the sample as a whole holds those more often.
For each entry below, report its growth value.
Write down the numeric answer in % and omit the unit.

In: I have this compound here, "CN(C)c1ccc(/C=C/c2nc3ccccc3c(=O)n2CC(=O)Nc2ccc(Cl)cc2)cc1" , and I need its recorded growth.
Out: 80

In: I have this compound here, "O=C(CSc1nnc(-c2ccc3nc(-c4ccccc4)[nH]c3c2)o1)Nc1ccc(Br)cc1" , and I need its recorded growth.
Out: 81.4

In: I have this compound here, "C=C1CC[C@H](C(=C)C)[C@H]2C=C(C)C(=O)C3=C(C(=O)[C@@](C)(O)C3)[C@H]12" , and I need its recorded growth.
Out: -78.5

In: I have this compound here, "O=C(NO)c1ccc(CNc2nc(-c3ccccc3)c3ccccc3n2)cc1" , and I need its recorded growth.
Out: 15.6

In: I have this compound here, "COc1ccc(C(=O)/C=C/c2cc(F)cc(C(F)(F)F)c2)cc1S(N)(=O)=O" , and I need its recorded growth.
Out: 7.02

In: I have this compound here, CCOP(=O)(OCC)O[C@H]1CCC(=O)[C@@H]2[C@H]1[C@H]1C[C@@H]3[C@@]4(C)CCCC(C)(C(=O)OC)[C@@H]4CC[C@@]23C=C1C(C)C (some centres undefined) , and I need its recorded growth.
Out: 41.5

In: I have this compound here, "Cc1ccc(/C=C/C(=O)c2ccc(NC(=O)CSc3nnc(-c4c[nH]c5ccccc45)n3-c3ccccc3)cc2)c(C)c1" , and I need its recorded growth.
Out: 63.7

In: I have this compound here, O=C(c1ccc(Cl)cc1)C1[C@H](c2ccc(Br)cc2)[C@@H](c2ccccc2)NC12C(=O)Nc1ccccc12 (some centres undefined) , and I need its recorded growth.
Out: 4.42

In: I have this compound here, "[2H]C([2H])([2H])Oc1ccc2ncc(C#Cc3cncc(C(=O)Nc4ccc(CN5CCN(C)CC5)c(C(F)(F)F)c4)c3)n2n1" , and I need its recorded growth.
Out: -60

In: I have this compound here, CCOC(=O)C1=C(N)N(c2ccc(C)cc2)C2=C(C(=O)CC(C)(C)C2)C1c1ccccc1OC (centres undefined) , and I need its recorded growth.
Out: 92.2

In: I have this compound here, "CCCn1c(=O)c2[nH]c(-c3ccc(OCc4nc5ccccc5[nH]4)cc3)nc2n(CCC)c1=O" , and I need its recorded growth.
Out: 55.7

In: I have this compound here, "O=C(CNc1nc(-c2ccccc2)cs1)Nc1cccc([N+](=O)[O-])c1" , and I need its recorded growth.
Out: -97.1

In: I have this compound here, "N#Cc1c(NC(=O)c2ccc(C(F)(F)F)cc2)sc2c1CCC(=O)C2" , and I need its recorded growth.
Out: -42.6

In: I have this compound here, "Cn1c(O)c(N=Nc2nc(-c3cc4ccccc4oc3=O)cs2)c2cc(Br)ccc21" , and I need its recorded growth.
Out: 65.4

In: I have this compound here, "COc1ccc2[nH]c(O)c(N=NC(=O)c3cc(-c4ccc(C)cc4)nc4ccccc34)c2c1" , and I need its recorded growth.
Out: 97.6

In: I have this compound here, "O=C1NC(=NC23CC4CC(CC(C4)C2)C3)N/C1=C\c1ccc2ncccc2n1" , and I need its recorded growth.
Out: -22

In: I have this compound here, "Cc1cccc(-c2nc(Nc3ccccc3C(=O)O)c3ccccc3n2)c1" , and I need its recorded growth.
Out: 21

In: I have this compound here, "CN1C(=O)/C(=C/c2ccc3ncsc3c2)NC1=NC12CC3CC(CC(O)(C3)C1)C2" , and I need its recorded growth.
Out: 12.3

In: I have this compound here, "N#Cc1c(NC(=O)c2ccc(C(F)(F)F)c(Cl)c2)sc2c1CCC(=O)C2" , and I need its recorded growth.
Out: -79.9

In: I have this compound here, "CN(C)c1ccc(/C=C/c2nc3ccccc3c(=O)n2CC(=O)Nc2ccccc2)cc1" , and I need its recorded growth.
Out: 63.6

In: I have this compound here, "CCCn1c(O)c(N=Nc2nc(-c3cc4ccccc4oc3=O)cs2)c2cc(Br)ccc21" , and I need its recorded growth.
Out: 92.8

In: I have this compound here, "Cc1ccc(CSc2nc(-c3ccc(F)cc3)c(C#N)c(=O)[nH]2)cc1" , and I need its recorded growth.
Out: 99.6

In: I have this compound here, "Cc1ccc(C(=O)Nc2ccc(-n3c(C)nc4c(cnn4-c4ccccc4)c3=O)cc2)cc1" , and I need its recorded growth.
Out: 30.5

In: I have this compound here, "COc1cc2oc(-c3cccc(C(=O)Nc4ccc(Cl)cc4)c3)cc(=O)c2c(OCCNC(=O)CNC(=O)OC(C)(C)C)c1OC" , and I need its recorded growth.
Out: 64.7

In: I have this compound here, "CN(C)c1nc(NCCNS(=O)(=O)c2ccc(C(=O)/C=C/c3ccccc3)cc2)nc(Nc2ccc(F)cc2)n1" , and I need its recorded growth.
Out: 29.1

In: I have this compound here, "Cc1cc2c(c(O)c1Br)-c1ncoc1C(=O)[C@]1(C)CC[C@H](C(C)C)[C@H]21" , and I need its recorded growth.
Out: 46.7

In: I have this compound here, "COc1ccc(C(C)=C(c2ccc(OCCCN(C)C)cc2)c2ccc(OCCCN(C)C)cc2)cc1" , and I need its recorded growth.
Out: -85.1

In: I have this compound here, "N#Cc1ccc(-c2nn(-c3ccc(C(=O)O)cc3)cc2CNc2cc(Cl)cc(C(F)(F)F)c2)cc1" , and I need its recorded growth.
Out: 22.8

In: I have this compound here, "Cc1ccc2nc(COc3ccc(C(=O)NNC(=S)NCCc4ccccc4)cc3)[nH]c2c1" , and I need its recorded growth.
Out: 95

====

For each entry below, report its growth value.
System: MDA-MB-435 melanoma
assaySummary: NCI-60 one-dose screen, 48 h (100 = growth as untreated, 0 = no growth, -100 = all killed)
testSettings: 10 µM
The panel holds about 83,000 compounds, 20% with a hit somewhere; the sample as a whole holds those more often.
Write down the numeric answer in % and omit the unit.

In: I have this molecule here, "Cc1ccc(-c2cc(-c3cc4ccccc4nc3Cl)[nH]c(=S)n2)cc1" , and I need its recorded growth.
Out: -1.81

In: I have this molecule here, CC1CC(c2ccc(N(C)C)cc2)=NN1c1nc(O)c(C2=c3cc(Br)ccc3=NC2=O)s1 (stereo not given) , and I need its recorded growth.
Out: 102

In: I have this molecule here, "Brc1ccc(N/N=C/c2c[nH]c3ccccc23)nc1" , and I need its recorded growth.
Out: 30.4

In: I have this molecule here, "CN1CCN(c2ccc(Nc3nc(NCCCNC(=O)c4ccc(F)cc4)c4sccc4n3)cc2)CC1" , and I need its recorded growth.
Out: 51.1

In: I have this molecule here, "N#Cc1c(NC(=O)c2ccc(C(O)(C(F)(F)F)C(F)(F)F)cc2)sc2c1CCC(=O)C2" , and I need its recorded growth.
Out: -45.2

In: I have this molecule here, "COc1ccc(CCN2C(=O)/C(=C/c3csc(C#N)n3)SC2=S)cc1OC" , and I need its recorded growth.
Out: 23.5

In: I have this molecule here, "CC(=O)Nc1ccc(-c2cn(-c3cccc(C(=O)Nc4cccc(OC(F)(F)F)c4)c3)nn2)cn1" , and I need its recorded growth.
Out: 61.4

In: I have this molecule here, "O=C(N/N=C/c1ccc(-c2cccc([N+](=O)[O-])c2)o1)c1[nH]c2ccc(Br)cc2c1-c1ccccc1" , and I need its recorded growth.
Out: 16.6

In: I have this molecule here, "CCCn1c(=O)c2[nH]c(-c3ccc(OCc4nc5ccc(C#N)cc5[nH]4)cc3)nc2n(CCC)c1=O" , and I need its recorded growth.
Out: 97.5

In: I have this molecule here, "CCCCCCCCCCCCCCCCCCCC(=O)NCCc1c[nH]c2ccc(OC(=O)NOCCOCCOCCOCCOCCOCCOCCOCCOCCOCCOCCOCCOCCOCCOCCOCCOCCOCCOCCOCCOCCOCCOC)cc12" , and I need its recorded growth.
Out: 17.2

In: I have this molecule here, "COc1cc(/C=C/C(=O)c2ccc(S(=O)(=O)NCCNc3nc(Nc4ccc(F)cc4)nc(N(C)C)n3)cc2)cc(OC)c1OC" , and I need its recorded growth.
Out: -24.8

In: I have this molecule here, "Cc1ccn2c(C(=O)c3ccc(Br)cc3)cc(-c3cc(-c4ccc(N(C)C)cc4)c(C#N)c(N)n3)c2c1" , and I need its recorded growth.
Out: 65

In: I have this molecule here, "COc1cc(/C=C/C(=O)c2ccc(C(F)(F)F)cc2)ccc1Oc1nc(Nc2ccc(F)cc2)nc(N(C)C)n1" , and I need its recorded growth.
Out: 80.1

In: I have this molecule here, "O=C1NC(=NC23CC4CC(CC(C4)C2)C3)N/C1=C\c1ccc2ncsc2c1" , and I need its recorded growth.
Out: 17.8

In: I have this molecule here, CCOC(=O)C1=C(N)N(c2ccccc2)C2=C(C(=O)CC(C)(C)C2)C1c1ccccc1OC (stereo not given) , and I need its recorded growth.
Out: 112

In: I have this molecule here, COc1ccccc1[C@H]1C(C(=O)c2ccc(Cl)cc2)C2(N[C@@H]1c1ccccc1)C(=O)Nc1ccc(Cl)cc12 (stereo not given in full) , and I need its recorded growth.
Out: -44.4

In: I have this molecule here, "COc1cccc(-c2ccnc(/N=C(\N)Nc3ccc(S(=O)(=O)Nc4nc(C)cc(C)n4)cc3)n2)c1" , and I need its recorded growth.
Out: 109

In: I have this molecule here, "COc1ccc2[nH]cc(/C=N/Nc3cccc(Cl)n3)c2c1" , and I need its recorded growth.
Out: 44.7

In: I have this molecule here, "COc1ccc(C(=O)CSc2nnc(-c3c[nH]c4ccccc34)n2-c2ccccc2)cc1" , and I need its recorded growth.
Out: 69.1

In: I have this molecule here, "CN1CCN(c2ccc(Nc3nc(NCCCNC(=O)c4ccc(Cl)cc4)c4sccc4n3)cc2)CC1" , and I need its recorded growth.
Out: 86.2

In: I have this molecule here, "N#Cc1ccc(-c2nn(-c3ccc(C(=O)O)cc3)cc2CNc2cc(Cl)cc(C(F)(F)F)c2)cc1" , and I need its recorded growth.
Out: 9.7

In: I have this molecule here, "N#Cc1ccc(-c2nn(-c3ccc(C(=O)O)cc3)cc2CNc2ccc(Oc3ccccc3)cc2)cc1" , and I need its recorded growth.
Out: 63.6

In: I have this molecule here, "COc1ccccc1C(=O)NNC(=O)CSc1nc2c(c(=O)[nH]1)CCCC2" , and I need its recorded growth.
Out: 109

In: I have this molecule here, "O=C(CS(=O)(=O)c1oc(-c2ccc(Cl)cc2)nc1S(=O)(=O)c1ccc(Cl)cc1)N1CCOCC1" , and I need its recorded growth.
Out: 47

In: I have this molecule here, "COc1ccc(-c2c(N)c(=O)n(C)c3ccccc23)cc1" , and I need its recorded growth.
Out: 59.2

In: I have this molecule here, "Nc1nnc(-c2c[nH]c3ncccc23)c(-c2c[nH]c3ccc(Br)cc23)n1" , and I need its recorded growth.
Out: 47.2

In: I have this molecule here, Cc1ccc(CNC(=O)Cc2ccc3c(c2)CN(C2CCC(=O)NC2=O)C3=O)cc1 (stereo not given) , and I need its recorded growth.
Out: 13.7

In: I have this molecule here, "O=c1cc(-c2ccccc2)oc2cc(OCCCNCc3ccccc3)cc(O)c12" , and I need its recorded growth.
Out: -44.2

In: I have this molecule here, "COc1ccc(/C=N/N=C(\C)c2ccc3c(c2)Nc2ccccc2S3)cc1O" , and I need its recorded growth.
Out: 34.7

In: I have this molecule here, "CCCCOc1ccc(Nc2nc3ccccc3nc2Nc2ccc(OCCCC)cc2)cc1" , and I need its recorded growth.
Out: 88.4

In: I have this molecule here, "[2H]C([2H])([2H])Oc1ccc2ncc(C#Cc3cncc(C(=O)Nc4ccc(CN5CCN(C)CC5)c(C(F)(F)F)c4)c3)n2n1" , and I need its recorded growth.
Out: -67.2

In: I have this molecule here, "Cc1ccc(NCC(=O)Nn2c(COc3ccccc3)nc3ccccc3c2=O)cc1" , and I need its recorded growth.
Out: 92.6

In: I have this molecule here, "CCN1CCN(Cc2ccc(C(=O)Nc3cccc(-c4cn(-c5ccc6oc(=O)ccc6c5)nn4)c3)cc2C(F)(F)F)CC1" , and I need its recorded growth.
Out: -100

In: I have this molecule here, "CS(=O)(=O)Nc1ccc(-c2ccc3c(c2)ncn3-c2ccc(NC(=O)Nc3ccc(Br)cc3)cc2)cc1" , and I need its recorded growth.
Out: -18

In: I have this molecule here, "Cc1ccc(/C=C(\C#N)n2nnc3c(F)cccc32)cc1" , and I need its recorded growth.
Out: 8.1

Every entry's value here was drawn from PubChem BioAssay (NCI).
